Experiment: Multiple ascending dose study, plasma pharmacokinetics of Compound (1) and GHB
Format: in vivo, human
Settings: human, plasma, oral, 6 g/day, Cohort 10 (6.0 g/day in a single dose), Dosing Day 4; read-out: Compound (1) plasma Cmax, Median
QUANTITY_MEASURED: Cmax (ng/mL)
// units = ng/mL; emit number, no label

input: Consider the molecule shown here: CC(C)[C@H](N)C(=O)OCCCC(=O)O What is its recorded Cmax?
output: 23500

----------
Experiment: Single ascending dose study, plasma pharmacokinetics of Compound (1) and GHB
Type: in vivo, human
Details: human, plasma, po, 6 g, Cohort 6 (6.00 g) single oral dose, fasted; read-out: Compound (1) plasma t1/2, Mean (converted)
QUANTITY_MEASURED: half-life (h)
Answer format: numeric, h implied, no suffix.

input: half-life lookup needed for CC(C)[C@H](N)C(=O)OCCCC(=O)O , thanks.
output: 1.18
